Kindly supply the reported % change in BG, 21 day values for the records listed here.
Tested on: alloxan-induced diabetic mouse model
Assay Remarks: Sub-acute evaluation of in vivo oral hypoglycemic activity (21 days dosing, 7 days rest)
Condition Summary: diabetic mice, oral 200 μg/kg body weight daily, day 21; mean ± SEM, n=6
State the answer as a number, implicitly in %.

query: In one line, give reported % change in BG, 21 day of the entry CC1(C)CC[C@]2(C(=O)O)CC[C@]3(C)C(=CC[C@@H]4[C@@]5(C)CC[C@H](O)C(C)(C)[C@@H]5CC[C@]43C)[C@@H]2C1 [Oleanolic acid, oleanolic acid] .
result: −37.68

query: Query % change in BG, 21 day for COc1ccc(Cl)cc1C(=O)NCCc1ccc(S(=O)(=O)NC(=O)NC2CCCCC2)cc1 [Glibenclamide, glibenclamide]
result: −30.87

query: Please look at this compound and report its % change in BG, 21 day: CC1CCC(NC(=O)NS(=O)(=O)c2ccc(CCNC(=O)C34CCC(C)(C)CC3C3=CCC5C6(C)CCC(=O)C(C)(C)C6CCC5(C)C3(C)CC4)cc2)CC1 (stereo not shown) [Compound 3b]
result: −88.89

query: Identify measured % change in BG, 21 day corresponding to CC1(C)CC[C@]2(C(=O)NCCc3ccc(S(=O)(=O)NC(=O)NC4CCCCC4)cc3)CC[C@]3(C)C(=CC[C@@H]4[C@@]5(C)CCC(=O)C(C)(C)[C@@H]5CC[C@]43C)[C@@H]2C1 [Compound 3a]
result: −87.65
